inhibition at 0.034 µM for assorted compounds
Biological target: aFGF (Homo sapiens)
Sequence (P05230 whole entry, species assumed): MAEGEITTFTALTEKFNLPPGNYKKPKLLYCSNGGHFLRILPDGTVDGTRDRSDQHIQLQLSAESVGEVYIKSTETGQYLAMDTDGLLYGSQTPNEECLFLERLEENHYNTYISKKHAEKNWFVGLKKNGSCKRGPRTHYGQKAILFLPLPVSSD
Experiment: Biacore biosensor: inhibition of aFGF binding to immobilised heparin and heparan sulfate
Settings: immobilised heparin; inhibitor 0.034 μM, aFGF 0.025 μM; read-out: Inhibition of binding of aFGF (Hep)
Express your answer in %, writing the number without its unit.

Reference set (3 entries):
1) O=S(=O)(O)O[C@H]1[C@H](OS(=O)(=O)O)[C@@H](N(CCCCCCCCCCN([C@H]2C=C[C@@H](OS(=O)(=O)O)[C@@H](OS(=O)(=O)O)[C@@H]2OS(=O)(=O)O)[C@H]2C=C[C@@H](OS(=O)(=O)O)[C@@H](OS(=O)(=O)O)[C@@H]2OS(=O)(=O)O)[C@H]2C=C[C@@H](OS(=O)(=O)O)[C@@H](OS(=O)(=O)O)[C@@H]2OS(=O)(=O)O)C=C[C@H]1OS(=O)(=O)O [Compound 4c] | 26
2) O=S(=O)(O)O[C@H]1[C@H](OS(=O)(=O)O)[C@@H](N(CCCCCCCCCN([C@H]2C=C[C@@H](OS(=O)(=O)O)[C@@H](OS(=O)(=O)O)[C@@H]2OS(=O)(=O)O)[C@H]2C=C[C@@H](OS(=O)(=O)O)[C@@H](OS(=O)(=O)O)[C@@H]2OS(=O)(=O)O)[C@H]2C=C[C@@H](OS(=O)(=O)O)[C@@H](OS(=O)(=O)O)[C@@H]2OS(=O)(=O)O)C=C[C@H]1OS(=O)(=O)O [Compound 4j] | 31
3) O=S(=O)(O)O[C@H]1[C@H](OS(=O)(=O)O)[C@@H](N(CCCCN([C@H]2C=C[C@@H](OS(=O)(=O)O)[C@@H](OS(=O)(=O)O)[C@@H]2OS(=O)(=O)O)[C@H]2C=C[C@@H](OS(=O)(=O)O)[C@@H](OS(=O)(=O)O)[C@@H]2OS(=O)(=O)O)[C@H]2C=C[C@@H](OS(=O)(=O)O)[C@@H](OS(=O)(=O)O)[C@@H]2OS(=O)(=O)O)C=C[C@H]1OS(=O)(=O)O [Compound 4g] | 44

Field: next compound
Lookup: Item under review: O=S(=O)(O)O[C@H]1[C@H](OS(=O)(=O)O)[C@@H](N(CCCCCCCN([C@H]2C=C[C@@H](OS(=O)(=O)O)[C@@H](OS(=O)(=O)O)[C@@H]2OS(=O)(=O)O)[C@H]2C=C[C@@H](OS(=O)(=O)O)[C@@H](OS(=O)(=O)O)[C@@H]2OS(=O)(=O)O)[C@H]2C=C[C@@H](OS(=O)(=O)O)[C@@H](OS(=O)(=O)O)[C@@H]2OS(=O)(=O)O)C=C[C@H]1OS(=O)(=O)O [Compound 4h] . Reported inhibition at 0.034 µM?
Found: 28
